- SYSTEM: T1, PUF4 RNA-binding domain (Saccharomyces cerevisiae, UniProt P25339 537-888)
- T1 sequence: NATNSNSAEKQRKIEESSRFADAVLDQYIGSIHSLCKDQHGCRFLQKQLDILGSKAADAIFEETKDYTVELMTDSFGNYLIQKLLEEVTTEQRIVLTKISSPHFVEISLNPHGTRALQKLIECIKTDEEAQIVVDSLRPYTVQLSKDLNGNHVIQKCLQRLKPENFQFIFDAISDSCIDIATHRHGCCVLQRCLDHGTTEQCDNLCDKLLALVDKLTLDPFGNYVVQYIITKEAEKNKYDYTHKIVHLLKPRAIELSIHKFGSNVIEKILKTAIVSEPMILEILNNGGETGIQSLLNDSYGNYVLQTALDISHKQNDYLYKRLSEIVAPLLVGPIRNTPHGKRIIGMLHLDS
- PROTOCOL NOTES: Mg; RNA-MaP; 20 mM Na-HEPES pH 7.4, 30 mM KOAc, 0.75 mM MgCl2, 0.1% Tween-20, 5% glycerol, 0.1 mg/mL BSA, 2 mM DTT; 25 C; 0.0125-409.6 nM protein
- TEST CONTEXT: tags: N-His6-TEV cleaved; C-SNAP kept, Cy3B-labelled; label: tethered on chip by stalled RNA polymerase
OBSERVABLE: Kd (nM)
Number only, in nM; omit the unit.

Quick check: Kd of Ic_S4_P4E.1_K4.1_C4.1_H4.1_A4.1_[T5A]_[A6T]_[T7A]_F4.1_[T8A]_[A9C]_T4.1 (ssRNA) RNA: UUUGACAACUGAUCGUUCUUUCUUGUAAUAACUUCUUUCUCGAUCAGUUGUCUUU ?
314

Quick check: Kd of ACAAACGAUAUAUAUUACAACAAAC (ssRNA) [Id_ii_S3_P4E.3_K4.2_C4.2_[C-2G]_[T-1A]_H4.2_A4.1_F4.1_T4.2_[G10C]_[T11A]] ?
50.4

Quick check: Kd of Ic_S4_P5E.1_K5.1_C5.1_H5.1_A5.1_[T5G]_[T6C]_[A7T]_F5.1_[T8C]_T5.1 (ssRNA) RNA: UUUGACAACUGAUCGUUCUUUCUUGUAGCUCUAUUCUUUCUCGAUCAGUUGUCUUU ?
10.1

Quick check: Kd of Id_ii_S2_P4E.2_K4.1_C4.2_[C-2T]_H4.1_A4.1_F4.1_T4.2_[G10T]_[T11A] (ssRNA) RNA: UUUGAUUAAUAUGAUAUCGUUCUUUCUUUUGUAUAUUAUAUUCUUUCUCGAUAUCAUAUUAAUCUUU ?
0.564

Quick check: Kd of Id_ii_S2_P3E.3_K3.2_C3.2_[C-2T]_H3.2_A3.1_F3.1_T3.2_[T9C]_[A10C] (ssRNA) RNA: UUUGAUUAAUAUGAUAUCGUUCUUUCUUUUAUAUAUACCUUCUUUCUCGAUAUCAUAUUAAUCUUU ?
191

Quick check: Kd of Ie_S2_P5E.1_K5.1_C5.1_H5.1_[+1TCTC]_A5.1_F5.1_T5.1 (ssRNA) RNA: UUUGAUUAAUAUGAUAUCGUUCUUUCUUUCUCGUAUUAUUAUUCUUUCUCGAUAUCAUAUUAAUCUUU ?
245
